Data origin, for the record: patent US20240228562A1

protocol: Thermal stability assessment by nanoDSC
Type: physicochemical
measurement_context: 1 mg/mL in PBS, scan 25-100° C. at 1° C./min
ONSET MELTING: recorded values

molecule: SEQ ID NO: 20: optimized CTGF-binding hNGAL lipocalin mutein (protein, lipocalin mutein) QDSTSDLIPAPPLSKVPLQQNFQDNQFQGKWYVVGLAGNAILREDKQPAKMFATIYELKEDKSYDVTSVRFEAKSCSYTIKTFVPGSQPGEFTAGNIKSAPGQTSTLVRVVSTNYNQHAMVFAKAVQLNREHFFITLYGRTKELTSELKENFIRFSKSLGLPENHIVFPVPIDQCIDG
ONSET MELTING: 46 °C

molecule: SEQ ID NO: 15: optimized CTGF-binding hNGAL lipocalin mutein (protein, lipocalin mutein) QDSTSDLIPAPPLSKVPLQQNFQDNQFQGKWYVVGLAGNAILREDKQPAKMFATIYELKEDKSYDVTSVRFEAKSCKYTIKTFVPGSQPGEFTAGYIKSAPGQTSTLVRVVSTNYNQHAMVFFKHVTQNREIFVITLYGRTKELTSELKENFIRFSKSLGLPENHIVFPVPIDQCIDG
ONSET MELTING: 59 °C

molecule: SEQ ID NO: 33: optimized CTGF-binding hNGAL lipocalin mutein (protein, lipocalin mutein) QDSTSDLIPAPPLSKVPLQQNFQDNQFQGKWYVVGWAGNAKLREDKQPFKMSATIYELKEDKSYDVTEVVFEQKKCHYIIKTFVPGSQPGEFTEGNYKRRPRLWSDLVRVVSTNYNQHAMVFFKKVHQNREFFWITLYGRTKELTSELKENFIRFSKSLGLPENHIVFPVPIDQCIDG
ONSET MELTING: 56 °C
